Species: Rattus norvegicus
Assay: Open TG-GATES - Regimen: Daily Repeat
Format: toxicity, organism-based, Sprague-Dawley
Set-up: regimen Daily Repeat, gender Male, age 6 weeks
Conditions: in vivo, po, 0 mg/kg, […], tissue Plasma, route gavage, dose level Control, time 7 day
A collection of compounds and their measured PL
Only the number, expressed in mg/dL, is required.

Consider the reported PL for these compounds:
C=C(C)[C@H]1Cc2c(ccc3c2O[C@@H]2COc4cc(OC)c(OC)cc4[C@@H]2C3=O)O1 : 157.2
Cn1cc[nH]c1=S : 163.4
C[C@H]1C(=O)O[C@@H]2CCN3CC=C(COC(=O)[C@](C)(O)[C@]1(C)O)[C@H]23 : 156.2

Would you kindly look at the next entry?
Exam item: Item C[C@H]1O[C@H](O[C@H]2[C@H](O)[C@@H](O)[C@@H](O[C@H]3[C@H](O)[C@@H](O)C(O)O[C@@H]3CO)O[C@@H]2CO)[C@H](O)[C@@H](O)[C@@H]1N[C@H]1C=C(CO)[C@@H](O)[C@H](O)[C@H]1O (some centres undefined) has what recorded PL?
Marked response: 160.4
